Hello, the source for this data is patent US5869650A, in case you need it.

measurement.name: IC50 (µM)
Kindly provide the numeric value in µM only, without the unit symbol.

Query IC50 on P-glycoprotein (Homo sapiens, UniProt P08183) for Cc1oc2nc1C(=O)N[C@H](C(C)C)c1nc(cs1)C(=O)N[C@H](C)c1nc(cs1)C(=O)N[C@@H]2C 0.5
